# maps each entry to its IC50
Target Desc: SARS-CoV-2 M^pro (Severe acute respiratory syndrome coronavirus 2)
Hi! Could you send only the number? It should be in µM, unit omitted.

See these solved cases before continuing.
O=c1[nH]cc(-c2cc(-c3cccc(Cl)c3)c(=O)n(-c3cccnc3)c2)c(=O)[nH]1: 6.38
N#Cc1ccccc1-c1cc(-c2cc(Cl)cc(Cl)c2)c(=O)n(-c2cccnc2)c1: 4.02

Okay, now this compound:
In: Give IC50 for N#Cc1ccccc1-c1cc(-c2cccc(Cl)c2)c(=O)n(-c2cccnc2)c1
Out: 9.99
